# study.target: Phospho-EGFR (Tyr1068) in H1975 C797S cells (Homo sapiens, UniProt P00533, C797S/L858R/T790M)
# Construct: endogenous in cells
# Sequence (P00533 25-1210 T790M/C797S/L858R): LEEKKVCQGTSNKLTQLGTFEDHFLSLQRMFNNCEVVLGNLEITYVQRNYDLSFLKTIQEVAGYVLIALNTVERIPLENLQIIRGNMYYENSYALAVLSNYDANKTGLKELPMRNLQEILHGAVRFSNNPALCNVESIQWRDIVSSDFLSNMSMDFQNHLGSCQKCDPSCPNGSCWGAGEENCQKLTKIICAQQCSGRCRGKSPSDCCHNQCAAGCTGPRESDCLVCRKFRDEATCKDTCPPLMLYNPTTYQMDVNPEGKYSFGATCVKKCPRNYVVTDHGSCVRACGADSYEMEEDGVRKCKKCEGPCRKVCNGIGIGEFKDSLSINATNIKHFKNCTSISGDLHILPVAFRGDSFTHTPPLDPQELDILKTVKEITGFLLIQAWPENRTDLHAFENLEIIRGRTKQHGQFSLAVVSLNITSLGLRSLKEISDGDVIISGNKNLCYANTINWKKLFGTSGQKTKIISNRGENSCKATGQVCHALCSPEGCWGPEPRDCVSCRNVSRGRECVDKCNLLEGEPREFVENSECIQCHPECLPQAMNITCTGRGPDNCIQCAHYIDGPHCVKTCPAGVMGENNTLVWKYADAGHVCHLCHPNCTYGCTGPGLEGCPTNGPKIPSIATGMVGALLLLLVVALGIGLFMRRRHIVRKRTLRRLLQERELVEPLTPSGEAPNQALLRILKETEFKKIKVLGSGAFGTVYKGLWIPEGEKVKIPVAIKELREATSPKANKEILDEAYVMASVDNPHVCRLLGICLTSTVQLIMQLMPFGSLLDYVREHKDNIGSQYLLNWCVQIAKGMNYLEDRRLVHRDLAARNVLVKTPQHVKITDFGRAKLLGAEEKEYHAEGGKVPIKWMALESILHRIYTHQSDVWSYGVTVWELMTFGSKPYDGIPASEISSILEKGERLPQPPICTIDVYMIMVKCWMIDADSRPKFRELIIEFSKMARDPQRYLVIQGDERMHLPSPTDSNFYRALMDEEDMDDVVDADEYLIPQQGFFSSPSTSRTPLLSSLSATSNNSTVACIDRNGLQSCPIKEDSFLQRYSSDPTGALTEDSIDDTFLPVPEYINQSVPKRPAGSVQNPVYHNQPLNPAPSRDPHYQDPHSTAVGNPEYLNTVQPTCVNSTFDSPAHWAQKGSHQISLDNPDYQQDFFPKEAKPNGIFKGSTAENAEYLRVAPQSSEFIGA
# measurement.protocol: HTRF pEGFR/total EGFR assay in H1975 C797S cells
# details: H1975 C797S cells (CRISPR), compound 3 hours, ratio pEGFR/total EGFR
Listed here are compounds together with their documented IC50.

compound	IC50
C#Cc1cc(NC(=O)N2CCCC2)nc2nc(Nc3ccc(N4CCN(C)CC4)cc3)ncc12	> 3 µM
C#Cc1cc(N2C(=O)OCC2C2CCCC2)nc2nc(Nc3ccc(N4CCNCC4)cc3)ncc12 (centres unmarked)	> 3 µM
C#Cc1cc(N2C(=O)N(C)CC2C(C)C)nc2nc(Nc3ccc(N4CCN(C)CC4)cc3)ncc12 (centres unmarked)	> 3 µM
C#Cc1cc(NC(=O)NCc2ccno2)nc2nc(Nc3ccc(N4CCN(C)CC4)cc3)ncc12	1 to 3 µM
C#Cc1cc(OC(C)C)nc2nc(Nc3ccc(N4CCN(C)CC4)cc3)ncc12	1 to 3 µM
C#Cc1cc(N2CCOC2=O)nc2nc(Nc3ccc(N4CCN(C)CC4)cc3)ncc12	> 3 µM
C#Cc1cc(NC(=O)NC2CCCC2)nc2nc(Nc3ccc(N4CCN(C5COC5)CC4)cc3)ncc12	< 0.5 µM
C#Cc1cc(NC(=O)NCc2ccnn2C)nc2nc(Nc3ccc(N4CCN(C)CC4)cc3)ncc12	< 0.5 µM

====

# study.target: Phospho-EGFR (Tyr1068) in H1975 cells (Homo sapiens, UniProt P00533, L858R/T790M)
# Sequence (P00533 25-1210 T790M/L858R): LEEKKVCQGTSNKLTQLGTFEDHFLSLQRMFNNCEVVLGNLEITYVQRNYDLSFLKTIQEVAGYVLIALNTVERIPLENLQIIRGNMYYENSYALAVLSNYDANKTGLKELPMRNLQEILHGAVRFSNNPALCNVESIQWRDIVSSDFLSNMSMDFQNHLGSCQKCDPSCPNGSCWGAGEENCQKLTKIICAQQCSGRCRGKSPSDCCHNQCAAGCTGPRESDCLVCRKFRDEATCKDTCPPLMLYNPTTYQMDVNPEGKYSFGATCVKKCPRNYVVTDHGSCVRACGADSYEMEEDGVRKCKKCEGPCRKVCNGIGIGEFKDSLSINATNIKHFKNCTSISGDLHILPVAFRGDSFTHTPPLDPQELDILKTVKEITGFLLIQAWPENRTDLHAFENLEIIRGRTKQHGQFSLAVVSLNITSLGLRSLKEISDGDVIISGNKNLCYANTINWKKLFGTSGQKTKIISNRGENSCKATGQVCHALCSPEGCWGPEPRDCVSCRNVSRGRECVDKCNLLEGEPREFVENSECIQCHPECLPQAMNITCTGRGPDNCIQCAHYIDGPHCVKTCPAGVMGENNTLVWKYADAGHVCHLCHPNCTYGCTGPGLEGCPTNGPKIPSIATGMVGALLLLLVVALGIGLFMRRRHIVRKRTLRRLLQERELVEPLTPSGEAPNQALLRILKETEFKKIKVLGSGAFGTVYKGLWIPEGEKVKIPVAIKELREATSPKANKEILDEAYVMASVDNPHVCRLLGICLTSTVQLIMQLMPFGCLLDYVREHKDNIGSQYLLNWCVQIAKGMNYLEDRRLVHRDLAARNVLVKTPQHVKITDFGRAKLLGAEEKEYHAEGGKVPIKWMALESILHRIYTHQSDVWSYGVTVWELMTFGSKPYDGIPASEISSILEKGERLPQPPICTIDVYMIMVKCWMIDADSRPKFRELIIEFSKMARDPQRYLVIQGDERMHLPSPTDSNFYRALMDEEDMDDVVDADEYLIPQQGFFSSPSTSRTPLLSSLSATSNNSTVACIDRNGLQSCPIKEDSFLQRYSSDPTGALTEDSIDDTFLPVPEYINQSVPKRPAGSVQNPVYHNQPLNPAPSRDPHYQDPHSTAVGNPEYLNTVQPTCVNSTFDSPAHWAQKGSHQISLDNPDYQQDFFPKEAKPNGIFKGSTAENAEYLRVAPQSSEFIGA
# measurement.protocol: HTRF pEGFR/total EGFR assay in H1975 cells
# details: compound 3 hours, ratio pEGFR/total EGFR
# Protocol: H1975 cells (ATCC CRL-5908) were plated at 20,000 cells per well in 96 well plates and placed at 37° C. 5% CO2. Once adhered (after 24h) cells were treated with compounds dissolved in DMSO at a final concentration of 0.1% DMSO in media. Compounds were diluted in media then added to cells for 3 hours in duplicate. […] Cells were lysed on a plate shaker (2000 rpm) for 30 minutes at room temperature. pEGFR expression was monitored using the Cisbio Phospho-EGFR (Tyri068) cellular kit (64EG1 PEH). […]
pIC50: −log10 of the molar value.
Listed here are compounds together with their documented pIC50.

compound	study.target	pIC50
C#Cc1cc(OC2CCC2)nc2nc(Nc3ccc(N4CCN(C)CC4)cc3)ncc12	Phospho-EGFR (Tyr1068) in H1975 cells (Homo sapiens, UniProt P00533, L858R/T790M)	< 5.52
C#Cc1cc(N2C(=O)OC[C@H]2C(C)C)nc2nc(Nc3ccc(N4CCN(C)CC4)cc3)ncc12	Phospho-EGFR (Tyr1068) in H1975 cells (Homo sapiens, UniProt P00533, L858R/T790M)	6.00 to 6.30
C#Cc1cc(N2C(=O)NCC23CCCC3)nc2nc(Nc3ccc(S(=O)(=O)N(C)C)cc3)ncc12	Phospho-EGFR (Tyr1068) in H1975 cells (Homo sapiens, UniProt P00533, L858R/T790M)	< 5.52
C#Cc1cc(OC)nc2nc(Nc3ccc(N4CCN(C)CC4)cc3)ncc12	Phospho-EGFR (Tyr1068) in H1975 cells (Homo sapiens, UniProt P00533, L858R/T790M)	6.00 to 6.30
C#Cc1cc(OCCc2ccccc2)nc2nc(Nc3ccc(N4CCN(C)CC4)cc3)ncc12	Phospho-EGFR (Tyr1068) in H1975 cells (Homo sapiens, UniProt P00533, L858R/T790M)	< 5.52
C#Cc1cc(NC(=O)NC2CCCC2)nc2nc(Nc3ccc(N4CCN(C)CC4)c(NCC4CCC4)c3)ncc12	Phospho-EGFR (Tyr1068) in H1975 cells (Homo sapiens, UniProt P00533, L858R/T790M)	> 6.30
C#Cc1cc(OC)nc2nc(Nc3ccc(N4CCN(C)CC4)c(N(C)C)c3)ncc12	Phospho-EGFR (Tyr1068) in H1975 cells (Homo sapiens, UniProt P00533, L858R/T790M)	< 5.52
C#Cc1cc(NC(=O)NC2CCCC2)nc2nc(Nc3ccc(S(=O)(=O)N(C)C)cc3)ncc12	Phospho-EGFR (Tyr1068) in H1975 cells (Homo sapiens, UniProt P00533, L858R/T790M)	< 5.52
C#Cc1cc(NC(=O)NC2CCCC2)nc2nc(Nc3ccc(S(C)(=O)=O)cc3)ncc12	Phospho-EGFR (Tyr1068) in H1975 cells (Homo sapiens, UniProt P00533, L858R/T790M)	6.00 to 6.30
C#Cc1cc(N2C(=O)NCC23CCCC3)nc2nc(Nc3ccc(S(C)(=O)=O)cc3)ncc12	Phospho-EGFR (Tyr1068) in H1975 cells (Homo sapiens, UniProt P00533, L858R/T790M)	6.00 to 6.30
C#Cc1cc(NC(=O)NC2CCC2)nc2nc(Nc3ccc(N4CCN(C)CC4)cc3)ncc12	Phospho-EGFR (Tyr1068) in H1975 cells (Homo sapiens, UniProt P00533, L858R/T790M)	> 6.30
C#Cc1cc(N2C(=O)NCC23CCCC3)nc2nc(Nc3ccc(N(C)C(C)=O)cc3)ncc12	Phospho-EGFR (Tyr1068) in H1975 cells (Homo sapiens, UniProt P00533, L858R/T790M)	< 5.52
C#Cc1cc(NC(=O)NC2COC2)nc2nc(Nc3ccc(N4CCN(C)CC4)cc3)ncc12	Phospho-EGFR (Tyr1068) in H1975 cells (Homo sapiens, UniProt P00533, L858R/T790M)	> 6.30
C#Cc1cc(NC(=O)NC2CCCC2)nc2nc(Nc3ccc(OCCN(C)C)cc3)ncc12	Phospho-EGFR (Tyr1068) in H1975 cells (Homo sapiens, UniProt P00533, L858R/T790M)	> 6.30
C#Cc1cc(NC(=O)NCc2ccccn2)nc2nc(Nc3ccc(N4CCN(C)CC4)cc3)ncc12	Phospho-EGFR (Tyr1068) in H1975 cells (Homo sapiens, UniProt P00533, L858R/T790M)	6.00 to 6.30
C#Cc1cc(N2C(=O)OCC2CC2CCCC2)nc2nc(Nc3ccc(N4CCN(C)CC4)cc3)ncc12 (stereo not shown)	Phospho-EGFR (Tyr1068) in H1975 cells (Homo sapiens, UniProt P00533, L858R/T790M)	6.00 to 6.30
C#Cc1cc(NC(=O)NC2(C(F)(F)F)CCCC2)nc2nc(Nc3ccc(N4CCN(C)CC4)cc3)ncc12	Phospho-EGFR (Tyr1068) in H1975 cells (Homo sapiens, UniProt P00533, L858R/T790M)	> 6.30
C#Cc1cc(NC(=O)NC2CCCC2)nc2nc(Nc3ccc(OC4CN(C)C4)cc3)ncc12	Phospho-EGFR (Tyr1068) in H1975 cells (Homo sapiens, UniProt P00533, L858R/T790M)	< 5.52
C#Cc1cc(OC)nc2nc(Nc3ccc(N4CCN(C)CC4)c(Nc4ccccc4)c3)ncc12	Phospho-EGFR (Tyr1068) in H1975 cells (Homo sapiens, UniProt P00533, L858R/T790M)	5.52 to 6.00
C#Cc1cc(N2C(=O)NC[C@H]2COC)nc2nc(Nc3ccc(N4CCN(C)CC4)cc3)ncc12	Phospho-EGFR (Tyr1068) in H1975 cells (Homo sapiens, UniProt P00533, L858R/T790M)	6.00 to 6.30
C#Cc1cc(NC(=O)NC2(C)COC2)nc2nc(Nc3ccc(N4CCN(C)CC4)cc3)ncc12	Phospho-EGFR (Tyr1068) in H1975 cells (Homo sapiens, UniProt P00533, L858R/T790M)	> 6.30
C#Cc1cc(N2C(=O)N(C)CC23CCCC3)nc2nc(Nc3ccc(S(C)(=O)=O)cc3)ncc12	Phospho-EGFR (Tyr1068) in H1975 cells (Homo sapiens, UniProt P00533, L858R/T790M)	< 5.52
C#Cc1cc(NC(C)=O)nc2nc(Nc3ccc(N(C)CCN(C)C)cc3)ncc12	Phospho-EGFR (Tyr1068) in H1975 cells (Homo sapiens, UniProt P00533, L858R/T790M)	< 5.52
C#Cc1cc(NC(=O)NC2CCCC2)nc2nc(Nc3cccc4c3CCN(C)C4)ncc12	Phospho-EGFR (Tyr1068) in H1975 cells (Homo sapiens, UniProt P00533, L858R/T790M)	< 5.52
C#Cc1cc(N2C(=O)N(C)CC2C(C)C)nc2nc(Nc3ccc(N4CCN(C)CC4)cc3)ncc12 (stereo not shown)	Phospho-EGFR (Tyr1068) in H1975 cells (Homo sapiens, UniProt P00533, L858R/T790M)	< 5.52
C#Cc1cc(NC(=O)NC2CCCC2)nc2nc(Nc3cccc(N(C)[C@H]4CC[C@H](CS(C)(=O)=O)CC4)c3)ncc12	Phospho-EGFR (Tyr1068) in H1975 cells (Homo sapiens, UniProt P00533, L858R/T790M)	6.00 to 6.30
C#Cc1cc(OC)nc2nc(Nc3cccc(CN(C)C(C)=O)c3)ncc12	Phospho-EGFR (Tyr1068) in H1975 cells (Homo sapiens, UniProt P00533, L858R/T790M)	< 5.52
C#Cc1cc(NC(=O)Nc2ncc[nH]2)nc2nc(Nc3ccc(N4CCN(C)CC4)cc3)ncc12	Phospho-EGFR (Tyr1068) in H1975 cells (Homo sapiens, UniProt P00533, L858R/T790M)	5.52 to 6.00

Cited source: patent US20260176265A1
